TEST TARGET: Solute carrier organic anion transporter family member 1B1 (Homo sapiens)
Sequence (Q9Y6L6 whole entry): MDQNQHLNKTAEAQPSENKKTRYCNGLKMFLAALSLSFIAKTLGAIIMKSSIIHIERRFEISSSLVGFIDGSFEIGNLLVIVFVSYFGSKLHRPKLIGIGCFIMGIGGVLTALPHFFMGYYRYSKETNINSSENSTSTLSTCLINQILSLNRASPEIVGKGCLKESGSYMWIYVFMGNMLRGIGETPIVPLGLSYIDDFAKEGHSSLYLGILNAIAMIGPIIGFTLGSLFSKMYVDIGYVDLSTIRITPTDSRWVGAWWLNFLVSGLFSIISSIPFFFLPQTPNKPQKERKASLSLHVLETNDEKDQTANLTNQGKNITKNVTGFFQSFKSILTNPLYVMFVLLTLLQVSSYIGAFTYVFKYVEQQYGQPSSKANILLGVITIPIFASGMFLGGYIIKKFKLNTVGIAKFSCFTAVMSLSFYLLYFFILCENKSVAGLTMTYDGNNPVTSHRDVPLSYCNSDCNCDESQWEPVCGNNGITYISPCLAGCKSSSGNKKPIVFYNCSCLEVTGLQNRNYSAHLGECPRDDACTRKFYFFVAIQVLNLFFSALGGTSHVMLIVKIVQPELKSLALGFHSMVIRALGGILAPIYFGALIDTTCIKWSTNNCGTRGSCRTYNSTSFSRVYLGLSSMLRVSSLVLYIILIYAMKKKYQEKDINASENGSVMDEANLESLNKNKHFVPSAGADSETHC
ASSAY NAME: Inhibition of human OATP1B1-mediated [3H]-Estrone sulfate uptake expressed in human HepG2 cells at 2 uM
Format: cell-based
CONDITION DETAILS: hepg2, 2 µM
MEASUREMENT TYPE: inhibition (INH)

C[C@H](CCCN(CC[C@@H](C)[C@H]1CC[C@H]2[C@@H]3[C@@H](O)C[C@@H]4C[C@H](O)CC[C@]4(C)[C@H]3CC[C@]12C)CCS(=O)(=O)O)[C@H]1CC[C@H]2[C@@H]3[C@@H](O)C[C@@H]4C[C@H](O)CC[C@]4(C)[C@H]3CC[C@]12C: Not Active
C[C@H](CCC(=O)NCCS(=O)(=O)O)[C@H]1CC[C@H]2[C@@H]3[C@@H](O)C[C@@H]4C[C@H](NC(=O)CCCC(=O)N[C@@H]5CC[C@@]6(C)[C@@H](C5)C[C@H](O)[C@@H]5[C@@H]6CC[C@]6(C)[C@@H]([C@H](C)CCC(=O)NCCS(=O)(=O)O)CC[C@@H]56)CC[C@]4(C)[C@H]3CC[C@]12C: Not Active
C[C@H](CCC(=O)NCCS(=O)(=O)O)[C@H]1CC[C@H]2[C@@H]3[C@@H](O)C[C@@H]4C[C@H](OC(=O)CCCC(=O)O[C@@H]5CC[C@@]6(C)[C@@H](C5)C[C@H](O)[C@@H]5[C@@H]6CC[C@]6(C)[C@@H]([C@H](C)CCC(=O)NCCS(=O)(=O)O)CC[C@@H]56)CC[C@]4(C)[C@H]3CC[C@]12C: Not Active

---

ASSAY NAME: Stability in human liver microsomes assessed as intrinsic clearance at 1 uM preincubated for 5 mins followed by NADPH addition and measured upto 60 mins by LC-MS analysis
Format: ADME, Microsome
CONDITION DETAILS: time 65 min, read-out: CLH
MEASUREMENT TYPE: microsomal CLint at 1 µM (µL/min/mg)
Return type: number; implicit unit µL/min/mg.

INPUT: What value of measured microsomal CLint at 1 µM is listed for C[C@@H]1CCC(=O)NC(C(=O)NCCS(=O)(=O)O)CNC(=O)CC[C@@H](C)[C@H]2CC[C@H]3[C@@H]4[C@@H](O)C[C@@H]5C[C@@H](CC[C@]5(C)[C@H]4CC[C@]23C)n2cc(nn2)CO[C@@H]2CC[C@@]3(C)[C@@H](C2)C[C@H](O)[C@@H]2[C@@H]3CC[C@]3(C)[C@@H]1CC[C@@H]23 (stereo partly specified) ?
OUTPUT: 6.1

---

Test system: Hepatitis B virus
ASSAY NAME: Antiviral activity against HBV infected in human HepG2-NTCP cells assessed as reduction in HBeAg secretion at 1 uM preincubated with compound followed by viral infection by ELISA
Format: functional, organism-based
Activity calls are given as the source filed them. No cut-off for these calls is given here.
MEASUREMENT TYPE: Activity

C[C@@H]1CCC(=O)NCCNC(=O)CC[C@@H](C)[C@H]2CC[C@H]3[C@@H]4[C@@H](O)C[C@@H]5C[C@@H](CC[C@]5(C)[C@H]4CC[C@]23C)NC(=O)CCCC(=O)N[C@@H]2CC[C@@]3(C)[C@@H](C2)C[C@H](O)[C@@H]2[C@@H]3CC[C@]3(C)[C@@H]1CC[C@@H]23: Active
C[C@H](CCC(=O)O[C@@H]1CC[C@@]2(C)[C@@H](C1)C[C@H](O)[C@@H]1[C@@H]2CC[C@]2(C)[C@@H]([C@H](C)CCC(=O)NCCS(=O)(=O)O)CC[C@@H]12)[C@H]1CC[C@H]2[C@@H]3[C@@H](O)C[C@@H]4C[C@H](O)CC[C@]4(C)[C@H]3CC[C@]12C: Active
C[C@H](CCCN(CC[C@@H](C)[C@H]1CC[C@H]2[C@@H]3[C@@H](O)C[C@@H]4C[C@H](O)CC[C@]4(C)[C@H]3CC[C@]12C)CCS(=O)(=O)O)[C@H]1CC[C@H]2[C@@H]3[C@@H](O)C[C@@H]4C[C@H](O)CC[C@]4(C)[C@H]3CC[C@]12C: Active

---

System: Hepatitis B virus
ASSAY NAME: Antiviral activity against HBV infected in human HepG2-NTCP cells assessed as reduction in intracellular accumulation of HBsAg at 1 uM by immunostaining based fluorescence microscopic analysis
Assay type: functional, organism-based
Active and inactive are the calls of the source. No cut-off for these calls is given here.
MEASUREMENT TYPE: Activity

C[C@H](CCC(=O)O[C@@H]1CC[C@@]2(C)[C@@H](C1)C[C@H](O)[C@@H]1[C@@H]2CC[C@]2(C)[C@@H]([C@H](C)CCC(=O)NCCS(=O)(=O)O)CC[C@@H]12)[C@H]1CC[C@H]2[C@@H]3[C@@H](O)C[C@@H]4C[C@H](O)CC[C@]4(C)[C@H]3CC[C@]12C: Active
C[C@H](CCC(=O)NCCS(=O)(=O)O)[C@H]1CC[C@H]2[C@@H]3[C@@H](O)C[C@@H]4C[C@H](NC(=O)CCCC(=O)N[C@@H]5CC[C@@]6(C)[C@@H](C5)C[C@H](O)[C@@H]5[C@@H]6CC[C@]6(C)[C@@H]([C@H](C)CCC(=O)NCCS(=O)(=O)O)CC[C@@H]56)CC[C@]4(C)[C@H]3CC[C@]12C: Active
C[C@@H]1CCC(=O)NCCNC(=O)CC[C@@H](C)[C@H]2CC[C@H]3[C@@H]4[C@@H](O)C[C@@H]5C[C@@H](CC[C@]5(C)[C@H]4CC[C@]23C)NC(=O)CCCC(=O)N[C@@H]2CC[C@@]3(C)[C@@H](C2)C[C@H](O)[C@@H]2[C@@H]3CC[C@]3(C)[C@@H]1CC[C@@H]23: Active

---

System: Hepatitis B virus
ASSAY NAME: Antiviral activity against HBV infected in human HepG2-NTCP cells assessed as reduction in intracellular accumulation of HBsAg at 1 uM by immunostaining based fluorescence microscopic analysis
Type: functional, organism-based
Calls of active or inactive are those of the source. No cut-off for these calls is given here.
MEASUREMENT TYPE: Activity

C[C@H](CCC(=O)NCCS(=O)(=O)O)[C@H]1CC[C@H]2[C@@H]3[C@@H](O)C[C@@H]4C[C@H](OC(=O)CCCC(=O)O[C@@H]5CC[C@@]6(C)[C@@H](C5)C[C@H](O)[C@@H]5[C@@H]6CC[C@]6(C)[C@@H]([C@H](C)CCC(=O)NCCS(=O)(=O)O)CC[C@@H]56)CC[C@]4(C)[C@H]3CC[C@]12C: Active
C[C@H](CCC(=O)NCCS(=O)(=O)O)[C@H]1CC[C@H]2[C@@H]3[C@@H](O)C[C@@H]4C[C@H](OCc5cn([C@@H]6CC[C@@]7(C)[C@@H](C6)C[C@H](O)[C@@H]6[C@@H]7CC[C@]7(C)[C@@H]([C@H](C)CCC(=O)NCCS(=O)(=O)O)CC[C@@H]67)nn5)CC[C@]4(C)[C@H]3CC[C@]12C: Active
C[C@H](CCCN(CC[C@@H](C)[C@H]1CC[C@H]2[C@@H]3[C@@H](O)C[C@@H]4C[C@H](O)CC[C@]4(C)[C@H]3CC[C@]12C)CCS(=O)(=O)O)[C@H]1CC[C@H]2[C@@H]3[C@@H](O)C[C@@H]4C[C@H](O)CC[C@]4(C)[C@H]3CC[C@]12C: Active

---

Tested on: Hepatocyte
ASSAY NAME: Cytotoxicity against primary tupaia hepatocytes expressing NTCP assessed as reduction in cell viability at 100 uM after 48 hrs by Cell-Titer Glo assay
Format: cell-based
CONDITION DETAILS: scandentia
MEASUREMENT TYPE: Activity

C[C@H](CCCN(CC[C@@H](C)[C@H]1CC[C@H]2[C@@H]3[C@@H](O)C[C@@H]4C[C@H](O)CC[C@]4(C)[C@H]3CC[C@]12C)CCS(=O)(=O)O)[C@H]1CC[C@H]2[C@@H]3[C@@H](O)C[C@@H]4C[C@H](O)CC[C@]4(C)[C@H]3CC[C@]12C: Non-Toxic
C[C@H](CCC(=O)NCCS(=O)(=O)O)[C@H]1CC[C@H]2[C@@H]3[C@@H](O)C[C@@H]4C[C@H](OCc5cn([C@@H]6CC[C@@]7(C)[C@@H](C6)C[C@H](O)[C@@H]6[C@@H]7CC[C@]7(C)[C@@H]([C@H](C)CCC(=O)NCCS(=O)(=O)O)CC[C@@H]67)nn5)CC[C@]4(C)[C@H]3CC[C@]12C: Non-Toxic
C[C@H](CCC(=O)NCCS(=O)(=O)O)[C@H]1CC[C@H]2[C@@H]3[C@@H](O)C[C@@H]4C[C@H](NC(=O)CCCC(=O)N[C@@H]5CC[C@@]6(C)[C@@H](C5)C[C@H](O)[C@@H]5[C@@H]6CC[C@]6(C)[C@@H]([C@H](C)CCC(=O)NCCS(=O)(=O)O)CC[C@@H]56)CC[C@]4(C)[C@H]3CC[C@]12C: Non-Toxic
